- target.under.test: survivin (Homo sapiens, UniProt O15392)
- Construct: transferred to the survivin1-142 construct used in the present study; His8 tag (pHIS8 vector, thrombin-cleavable); made in house; host or cells: E. coli BL21(DE3) star
- Sequence (O15392 whole entry): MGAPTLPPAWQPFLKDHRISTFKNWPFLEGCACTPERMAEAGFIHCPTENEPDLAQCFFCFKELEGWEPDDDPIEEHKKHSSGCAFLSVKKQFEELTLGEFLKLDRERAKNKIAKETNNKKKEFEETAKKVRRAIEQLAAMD
- test: PEPperCHIP peptide microarray, survivin interaction
- Assay type: binding
- test.context: 1 μg/mL survivin; anti-His tag DyLight680 read-out; percentage of maximum fluorescence intensity units (64193) per peptide; 15-mer microarray peptides covering the residues
observed.property: Average FI (%)

{"columns": ["sequence.chain", "observed.property", "readout.value"],
 "data": [
  ["PLRPQEMEVDSEDEKDPEWLREKTI [SUZ12_573-597, PRC2-derived peptide, SUZ12 residues 573–597, synthesized by Biomatik]", "Average FI (%)", "20%"],
  ["VELVNALGQYNDDDDDDDGD DPEEREEKQKDLEDHRDDKE [EZH2_172-211, PRC2-derived peptide, EZH2 residues 172–211, synthesized by Biomatik]", "Average FI (%)", "71%"],
  ["PNSMVYFGSSQDEEEVEEEDDETED [JARID2_170-194, PRC2-derived peptide, JARID2 residues 170–194, synthesized by Biomatik]", "Average FI (%)", "100%"],
  ["SQGEIRLLQSYVDADADENFYTCAW [EED128-152, PRC2-derived peptide, EED residues 128–152, synthesized by Biomatik]", "Average FI (%)", "10%"]
]}
